All figures here come from paper PMC9455983.

Molecular target: mu-opioid receptor (MOR) (Rattus norvegicus, UniProt P33535)
Construct: Rat cortices were homogenized using 50 mM Tris, pH 7.4, and centrifuged at 16,500 rpm for 10 min; from tissue; host or cells: rat cortex membranes
Experiment: MOR radioligand competition binding assay ([3H]-DAMGO)
Details: Mu screening results, experiment 2; unit inferred; read-out: Ki (Exp 2)
Method: MOR binding assay: Rat cortices were homogenized using 50 mM Tris, pH 7.4, and centrifuged at 16,500 rpm for 10 min. The pellets were resuspended in fresh buffer and incubated at 37 °C for 30 min. […] All three binding assays were terminated by filtration through GF/B filters, soaked in 5 mg/mL bovine serum albumin, 50 mM Tris, pH 7.4, on a Tomtec Mach II Harvester 96. […] Bound radioactivity was counted on a Wallac Betaplate Liquid Scintillation Counter. […]
Value Kind: pKi
Please express pKi as -log10 of the molar concentration.

In: Enter recorded pKi with mu-opioid receptor (MOR) (Rattus norvegicus, UniProt P33535) for `Cc1cc(O)cc(C)c1C[C@H]1CNC(=N)N1C[C@H](Cc1ccc(O)cc1)N1C[C@H](Cc2ccc(O)cc2)NC1=N` here.
Out: 7.25

In: Enter recorded pKi with mu-opioid receptor (MOR) (Rattus norvegicus, UniProt P33535) for `CC(C)C[C@@H](CN1C(=N)NC[C@@H]1C)N1C[C@H](Cc2ccccc2)NC1=N` here.
Out: 5.13

In: Enter recorded pKi with mu-opioid receptor (MOR) (Rattus norvegicus, UniProt P33535) for `Cc1cc(O)cc(C)c1C[C@H]1CN([C@@H](CC(C)C)CN2C(=N)NC[C@@H]2Cc2c(C)cc(O)cc2C)C(=N)N1` here.
Out: 7.15

In: Enter recorded pKi with mu-opioid receptor (MOR) (Rattus norvegicus, UniProt P33535) for `Cc1cc(O)cc(C)c1C[C@H]1CNC(=N)N1C[C@H](CC(C)C)N1C[C@H](Cc2ccc(O)cc2)NC1=N` here.
Out: 7.21

In: Enter recorded pKi with mu-opioid receptor (MOR) (Rattus norvegicus, UniProt P33535) for `Cc1cc(O)cc(C)c1C[C@H]1CNC(=N)N1C[C@H](Cc1ccccc1)N1C[C@H](Cc2ccc(O)cc2)NC1=N` here.
Out: 6.94

In: Enter recorded pKi with mu-opioid receptor (MOR) (Rattus norvegicus, UniProt P33535) for `C[C@H]1CNC(=N)N1C[C@H](Cc1ccc(O)cc1)N1C[C@H](Cc2ccc(O)cc2)NC1=N` here.
Out: 6.71

In: Enter recorded pKi with mu-opioid receptor (MOR) (Rattus norvegicus, UniProt P33535) for `Cc1cc(O)cc(C)c1C[C@@H](CN1C(=N)NC[C@@H]1C)N1C[C@H](CC(C)C)NC1=N` here.
Out: 7.85

In: Enter recorded pKi with mu-opioid receptor (MOR) (Rattus norvegicus, UniProt P33535) for `CC(C)C[C@@H](CN1C(=N)NC[C@@H]1Cc1ccccc1)N1C[C@H](Cc2ccc(O)cc2)NC1=N` here.
Out: 6.55

----------
Molecular target: kappa-opioid receptor (KOR) (Cavia porcellus)
Construct: Guinea pig cortices and cerebella were homogenized using 50 mM Tris, pH 7.4; from tissue; host or cells: guinea pig cortex and cerebellum membranes
Experiment: KOR radioligand competition binding assay ([3H]U69,593)
Set-up: species or system guinea pig
Details: Kappa screening results, mean of Exp 1 and Exp 2; unit inferred; read-out: MEAN (Ki)
Protocol: KOR binding assay: Guinea pig cortices and cerebella were homogenized using 50 mM Tris, pH 7.4, 10 mM MgCl2-6H2O, […] centrifuged and incubated as above. Each assay tube contained 2 nM [^3H]U69,593. Assay tubes were incubated for 2 h at 25 °C. Unlabeled U50,488 was used as a competitor to generate a standard curve and determine nonspecific binding. […]
Value Kind: pKi
Please express pKi as -log10 of the molar concentration.

In: Read the entry `Cc1cc(O)cc(C)c1C[C@H]1CNC(=N)N1C[C@H](Cc1c(C)cc(O)cc1C)N1C[C@H](Cc2ccc(O)cc2)NC1=N` and write its reported pKi.
Out: 5.63

In: Read the entry `N=C1NC[C@H](Cc2ccccc2)N1C[C@H](Cc1ccc(O)cc1)N1C[C@H](Cc2ccccc2)NC1=N` and write its reported pKi.
Out: 5.42

In: Read the entry `CC(C)C[C@@H](CN1C(=N)NC[C@@H]1Cc1ccccc1)N1C[C@H](Cc2ccc(O)cc2)NC1=N` and write its reported pKi.
Out: 5.29

In: Read the entry `CC(C)C[C@H]1CN([C@@H](Cc2ccccc2)CN2C(=N)NC[C@@H]2C)C(=N)N1` and write its reported pKi.
Out: 4.36

In: Read the entry `Cc1cc(O)cc(C)c1C[C@H]1CNC(=N)N1C[C@H](CC(C)C)N1C[C@H](Cc2ccccc2)NC1=N` and write its reported pKi.
Out: 6.28

In: Read the entry `CC(C)C[C@@H](CN1C(=N)NC[C@@H]1Cc1ccccc1)N1C[C@H](Cc2ccccc2)NC1=N` and write its reported pKi.
Out: 4.95

In: Read the entry `CC(C)C[C@@H](CN1C(=N)NC[C@@H]1C)N1C[C@H](Cc2ccccc2)NC1=N` and write its reported pKi.
Out: 4.64

In: Read the entry `Cc1cc(O)cc(C)c1C[C@H]1CNC(=N)N1C[C@H](Cc1c(C)cc(O)cc1C)N1C[C@H](Cc2ccccc2)NC1=N` and write its reported pKi.
Out: 5.98

In: Read the entry `Cc1cc(O)cc(C)c1C[C@H]1CNC(=N)N1C[C@H](Cc1ccc(O)cc1)N1C[C@H](Cc2ccc(O)cc2)NC1=N` and write its reported pKi.
Out: 5.82

In: Read the entry `N=C1NC[C@H](Cc2ccccc2)N1C[C@H](Cc1ccc(O)cc1)N1C[C@H](Cc2ccc(O)cc2)NC1=N` and write its reported pKi.
Out: 5.36

In: Read the entry `CC(C)C[C@H]1CN([C@@H](CC(C)C)CN2C(=N)NC[C@@H]2C)C(=N)N1` and write its reported pKi.
Out: 4.35

In: Read the entry `N=C1NC[C@H](Cc2ccc(O)cc2)N1C[C@H](Cc1ccc(O)cc1)N1C[C@H](Cc2ccc(O)cc2)NC1=N` and write its reported pKi.
Out: 5.08

In: Read the entry `N=C1NC[C@H](Cc2ccc(O)cc2)N1C[C@H](Cc1ccccc1)N1C[C@H](Cc2ccccc2)NC1=N` and write its reported pKi.
Out: 5.18

In: Read the entry `Cc1cc(O)cc(C)c1C[C@H]1CN([C@@H](Cc2ccc(O)cc2)CN2C(=N)NC[C@@H]2C)C(=N)N1` and write its reported pKi.
Out: 6.60

In: Read the entry `Cc1cc(O)cc(C)c1C[C@H]1CNC(=N)N1C[C@H](Cc1ccccc1)N1C[C@H](Cc2ccc(O)cc2)NC1=N` and write its reported pKi.
Out: 5.74

In: Read the entry `Cc1cc(O)cc(C)c1C[C@@H](CN1C(=N)NC[C@@H]1Cc1ccc(O)cc1)N1C[C@H](Cc2ccc(O)cc2)NC1=N` and write its reported pKi.
Out: 5.76

In: Read the entry `Cc1cc(O)cc(C)c1C[C@H]1CNC(=N)N1C[C@H](Cc1ccccc1)N1C[C@H](Cc2ccccc2)NC1=N` and write its reported pKi.
Out: 5.91

----------
Would you kindly list Ki for each of these molecules?
target: kappa-opioid receptor (KOR) (Cavia porcellus); construct: Guinea pig cortices and cerebella were homogenized using 50 mM Tris, pH 7.4; from tissue; host or cells: guinea pig cortex and cerebellum membranes; experiment: KOR radioligand competition binding assay ([3H]U69,593); set-up: species or system guinea pig; settings: Kappa screening results, mean of two experiments; read-out: Ki
State the value, then name its unit.

In: Read the entry `CC(C)C[C@H]1CN([C@@H](Cc2ccc(O)cc2)CN2C(=N)NC[C@@H]2Cc2ccccc2)C(=N)N1` and write its reported Ki.
Out: 2.99 µM

In: Read the entry `N=C1NC[C@H](Cc2ccccc2)N1C[C@H](Cc1ccccc1)N1C[C@H](Cc2ccccc2)NC1=N` and write its reported Ki.
Out: 15.9 µM

In: Read the entry `Cc1cc(O)cc(C)c1C[C@@H](CN1C(=N)NC[C@@H]1Cc1ccc(O)cc1)N1C[C@H](Cc2ccc(O)cc2)NC1=N` and write its reported Ki.
Out: 1.74 µM

In: Read the entry `CC(C)C[C@H]1CN([C@@H](CC(C)C)CN2C(=N)NC[C@@H]2Cc2ccc(O)cc2)C(=N)N1` and write its reported Ki.
Out: 4.54 µM

In: Read the entry `CC(C)C[C@@H](CN1C(=N)NC[C@@H]1C)N1C[C@H](Cc2ccccc2)NC1=N` and write its reported Ki.
Out: 22.9 µM

In: Read the entry `CC(C)C[C@H]1CN([C@@H](CC(C)C)CN2C(=N)NC[C@@H]2C)C(=N)N1` and write its reported Ki.
Out: 44.5 µM

In: Read the entry `Cc1cc(O)cc(C)c1C[C@H]1CN([C@@H](CC(C)C)CN2C(=N)NC[C@@H]2Cc2c(C)cc(O)cc2C)C(=N)N1` and write its reported Ki.
Out: 0.365 µM
